Entries and their melting point

The following molecules have reported results that may help.
Molecule	Result
COc1ccc(C=C(C)c2cc(OC)sc2C)cc1	112 to 113 °C
CN(C)C=Nc1c(Cl)cc(NCc2ccc(N(C)C)cc2F)cc1Cl	118 to 120 °C
Cc1cc(CN2CCN(c3ccc(C(=O)NC4CC4)cc3Cl)CC2)cc2c1OC(C)C(=O)N2 (stereo not given)	252 to 255 °C
CCOC(=O)[C@@H](Cc1cccnc1)NC(C)=O	80 °C

Now for the molecule whose melting point we want.
melting point in this record for Cn1ncc(C(=O)N2CCC2)c1C(=O)Nc1ccn2nc(-c3ccncc3)nc2c1 : > 250 °C

###

Measured property: melting point

The following compounds have reported results that may help.
Compound	Result
O=C(c1ccccc1)c1cc(Cl)ccc1-n1ccnc1	106 to 108 °C
O=[N+]([O-])CC1C2(CCCC1(c1ccccc1)c1ccccc1)OCCO2 (racemic)	148 °C
CCn1cc(C(=O)O)c(=O)c2cnc(N3CCN(CCO)CC3)nc21	222 °C
CCCCc1nc2cccc(C(=O)OC)c2[nH]1	85 °C
CCOC(=O)c1cc(-c2ccc(Cl)cc2)c(Cl)nc1N	195 to 198 °C
Cc1cc(-c2cc(COS(C)(=O)=O)c(=O)n(CC=Cc3ccccc3)n2)ccc1F	78.4 to 80.5 °C
Nc1cc(Cl)ncc1F	110 to 111 °C
CN1N=C(c2ccc(F)cc2)c2cc(F)ccc2CS1(=O)=O	169 to 171 °C

melting point in this record for CCCn1c(=S)c2[nH]c(C(C)C)nc2n(CCC)c1=O : 133 to 134 °C

melting point in this record for Cc1ccc(S(=O)(=O)N2CCN(c3ccc(O)cc3)CC2)cc1 : 193 °C

melting point in this record for CCOC(=O)c1nc(C2CC2)nc(N)c1C : 130 to 132 °C

melting point in this record for CCOC(=O)CC1=NN(c2ccc(C(=O)O)cc2)C(=O)C1 : 246 °C

melting point in this record for O=C(O)CCc1cn(Cc2ccc(OCc3cccnc3)cc2)nc1-c1ccccc1 : 112 to 113 °C

###

Measured property: melting point

Molecule	Result
CN(C)c1ccc(-c2cc(N)n[nH]2)cc1	169 to 170 °C
Cc1c(Cl)ccc([N+](=O)[O-])c1N	164 to 165 °C
CCCCC(NC(=O)C(CC(C)C)NC(=O)c1ccc2ccccc2c1)C(=O)CSCc1ccco1 (configuration not stated)	97 to 99 °C
COc1ccccc1C(=O)c1sc(Nc2cccnc2)nc1N	245 to 246 °C
CCOC(=O)Nc1nc(CC(=O)OC)ns1	110 to 112 °C
COC(=O)c1ccc(C(O)c2cc3cc(C(F)(F)F)ccc3n2S(=O)(=O)c2ccc(C(C)C)cc2)cc1 (configuration not stated)	68 °C
O=C(Cc1ccccc1)c1ccc(OCC2CO2)cc1 (configuration not stated)	81 to 82.4 °C
CCCCNc1cc(C(=O)O)cc(S(=O)(=O)NCCCC)c1Sc1ccc(N)cc1	198 to 200 °C
COc1ccccc1-c1ccc(C[C@H](NC(=O)c2c(Cl)cccc2Cl)C(=O)O)cc1C(C)=O	87 to 89 °C
C[Si](Cn1ncnc1I)(c1ccc(F)cc1)c1ccc(F)cc1	102 to 104 °C

melting point in this record for Cc1c(C(=O)Nc2ccc(N3CCC(N4CCOCC4)CC3)c(C#N)c2)cnn1CCc1ccccc1 : 195 °C

melting point in this record for Fc1ccc(-n2ccc3cc(-c4nnn[nH]4)ccc32)cc1 : 224 to 225 °C

melting point in this record for CCCn1nc2c(N)nc3ccccc3c2c1CCCCS(C)(=O)=O : 155 to 157 °C

melting point in this record for O=Cc1csc(Cc2ccccc2)n1 : 78 °C

melting point in this record for COC(=O)C(O)C(F)(F)F (configuration not stated) : 50 to 53 °C

melting point in this record for COc1ccc(-c2cc(=O)n(-c3ccccn3)nc2C)cc1 : 156 to 157 °C

melting point in this record for Oc1ccc2c(c1)OCC(c1ccc(F)cc1)C2c1ccc(OCCN2CCCC2)cc1 (configuration not stated) : 164 to 167 °C

melting point in this record for CC#Cc1cc(=O)n2nc(S(=O)(=O)CCCCCC)sc2n1 : 122 to 125 °C

melting point in this record for CC(=O)Nc1cccc2c(-c3ccccc3)c([N+](=O)[O-])oc12 : 224 to 226 °C

melting point in this record for CCN1CCN(C2c3c(C)c(N4CCN(c5ccc(OC)cc5)CC4)c(C)c(C)c3OC2(C)C)CC1 (configuration not stated) : 98 to 100 °C

melting point in this record for CN(C)c1ccc(NC(=O)Cn2c(-c3ccc(Br)cc3)nc3cccnc32)cc1 : 248 to 250 °C

melting point in this record for CC(S)C(=O)NCCS (configuration not stated) : 53 °C

Numbers sourced from a melting point compilation (Tetko et al.; mined from patent text by program, amines drawn as free bases though some values may be those of a salt).
